# System: DeltatarO mutant
# experiment notes: S. aureus survival, RN4220 and DeltatarO strains – OD600, teichoic acid synthesis inhibitors, primary screen (AID 463173)
# recorded conditions: S. aureus RN4220 wild type/DeltatarO growth, OD600, 18 h, active compounds read low, screened at 18.75 µg/mL (by protocol)
About 4,300 (8.3%) of roughly 52,000 compounds were called active. This is one part of a sample in which actives are shown more often than they occur.
Binary label based on survival with cut-off 80%: below gives fulfilled, not below gives not fulfilled.

[
  {
    "molecule": "CCOc1ccc(CNC(=O)CCC(=O)N2CC(C)Sc3ccccc32)cc1 (configuration not stated)",
    "classification": "fulfilled"
  },
  {
    "molecule": "CN(CC(=O)Nc1cccc(C#N)c1)S(=O)(=O)c1cc2c(cc1Cl)NC(=O)CO2",
    "classification": "not fulfilled"
  },
  {
    "molecule": "CCCCCCOc1ccc(-c2nc3ccc(Br)cc3c(=O)o2)cc1",
    "classification": "not fulfilled"
  },
  {
    "molecule": "COc1ccc2c(c1)c(CC(=O)Nc1cc(C)c(OC)c(C)c1)c(C)n2C(=O)c1ccc(Cl)cc1",
    "classification": "fulfilled"
  },
  {
    "molecule": "COc1ccccc1CNC(=O)CCn1cnc2ccccc2c1=O",
    "classification": "fulfilled"
  },
  {
    "molecule": "Cc1ccc(CNC(=O)CCC(=O)N2CC(C)Sc3ccccc32)cc1 (configuration not stated)",
    "classification": "fulfilled"
  },
  {
    "molecule": "Cc1cccc(N2CCN(S(=O)(=O)c3ccc(F)c(C(=O)Nc4cccc(Cl)c4C)c3)CC2C)c1 (configuration not stated)",
    "classification": "not fulfilled"
  },
  {
    "molecule": "COc1cccc(CNC(=O)CCC(=O)N2CC(C)Sc3ccccc32)c1 (configuration not stated)",
    "classification": "fulfilled"
  },
  {
    "molecule": "CCOc1ccc(CC(=O)NCCc2csc(-c3ccc(Cl)cc3)n2)cc1",
    "classification": "fulfilled"
  },
  {
    "molecule": "CCc1ccc(CN2C(=O)c3ccccc3C2C(=O)NC2CCCCCC2)cc1 (configuration not stated)",
    "classification": "fulfilled"
  },
  {
    "molecule": "O=C(Nc1ccccc1C(F)(F)F)C1CCN(S(=O)(=O)Cc2ccccc2)CC1",
    "classification": "fulfilled"
  },
  {
    "molecule": "CC1(c2ccc(Cl)cc2Cl)OCC(Cn2cncn2)O1 (configuration not stated)",
    "classification": "not fulfilled"
  },
  {
    "molecule": "COc1ccccc1CNC(=O)CSCc1nc(-c2ccc(OC)c(OC)c2)oc1C",
    "classification": "fulfilled"
  },
  {
    "molecule": "COc1ccc(Cl)cc1NC(=O)C1CCN(S(=O)(=O)c2ccc(F)cc2)CC1",
    "classification": "fulfilled"
  },
  {
    "molecule": "Cc1cc(C)c2c(-n3cccc3)c(C(=O)NCc3cccc(F)c3)sc2n1",
    "classification": "fulfilled"
  },
  {
    "molecule": "COc1ccc(Cl)cc1NC(=O)C1CCN(S(=O)(=O)c2ccc3c(c2)CC(C)N3C(C)=O)CC1 (configuration not stated)",
    "classification": "not fulfilled"
  },
  {
    "molecule": "COc1cc(C2CC(=O)N(c3ccccc3)C3=C2C(=O)OC3)cc(OC)c1OC (configuration not stated)",
    "classification": "fulfilled"
  },
  {
    "molecule": "COc1ccccc1NC(=O)CCn1cnc2ccccc2c1=O",
    "classification": "not fulfilled"
  },
  {
    "molecule": "CN1CCN(Cn2c(O)c(N=NC(=O)c3ccc(Br)cc3)c3cc(Br)ccc32)CC1",
    "classification": "not fulfilled"
  },
  {
    "molecule": "Cc1cccc2cc(CN(Cc3ccco3)C(=O)N3CCOCC3)c(Cl)nc12",
    "classification": "not fulfilled"
  },
  {
    "molecule": "O=C(CCn1cnc2ccccc2c1=O)NCc1ccccc1Cl",
    "classification": "fulfilled"
  },
  {
    "molecule": "Cc1oc(-c2cccc(Cl)c2)nc1CS(=O)(=O)CC(=O)NCc1ccccc1Cl",
    "classification": "fulfilled"
  }
]
